System: EKVX NSCLC
Assay Explanation: NCI tumour cell line growth inhibition, 48 h
Reported Property: TGI (µM)
Give bare numbers, in µM.

CCCCCCCCC#CCCCCCCCCCC[C@@H]1C(=O)O[C@H](C)[C@@H]1O (tested in a mixture with another compound)
54.9

Give me TGI for each of these compounds, listed below.
1. C#CC1=CC(=O)C(OC)=CC1=O
2. CS(=O)(=O)c1ccc(Nc2nc(N[C@H]3CCCC[C@H]3N)nc3cc[nH]c(=O)c23)cc1
3. CCCCC#Cc1c(I)n(C)c(=O)[nH]c1=O
4. C#C[C@@]1(O)[C@@H](CO)O[C@@H](n2cc(I)c3c(N)ncnc32)[C@@H]1O

68.1
5.41
29.1
5.37

Give me TGI for each of these compounds, listed below.
1. COc1ccc(/C=C/c2c(C(=O)/C=C/c3ccc(C(F)(F)F)cc3)c(C)nc3ccccc23)cc1
2. CC(=O)OCC1OC(n2c(C)c(C)c(C)c(C#N)c2=S)C(OC(C)=O)C(OC(C)=O)C1OC(C)=O (stereo not given)

4.49
94.3

###

System: OVCAR-5 ovarian
Assay Explanation: NCI tumour cell line growth inhibition, 48 h; in the data active means GI50 below about 0.43 µM; inactive means the rest
Just give me one of these, please: 1 for active, -1 for inactive

Completed entries (count: 5):
COC(=O)c1c(-c2cccs2)oc(-c2cccs2)c1C(=O)OC
-1
CC/C(Cc1ccccc1)=C(\c1ccc(OCCN2CCCC2)cc1)c1ccc(OC(=O)NCc2ccccc2)cc1
-1
CN=C1C=CC(=C(c2ccc(N(C)C)cc2)c2ccc(N(C)C)cc2)C=C1
1
O=C(CN(/C=C/C(=O)C(F)(F)F)c1ccc(Cl)cc1)c1ccc(Cl)c(Cl)c1
-1
c1ccc(OCCC[P+](c2ccccc2)(c2ccccc2)c2ccccc2)cc1
-1

// param item: CCN(CC)CCCC(C)Nc1cc(-c2cccc(OC(F)(F)F)c2)nc2ccc(N3CCCC3)cc12 (centres undefined) ; yields the recorded call
1

// param item: "Cc1cc(C)c(C#N)c(Sc2nc(C)c([N+](=O)[O-])c(C)c2C#N)n1" ; yields the recorded call
-1

// param item: "CS(=O)(=O)Nc1cccc(-c2ccc3ncnc(Nc4ccc(F)c(Cl)c4)c3c2)c1" ; yields the recorded call
-1

// param item: "[N-]=[N+]=NCCCn1c2c(c3ccc([N+](=O)[O-])cc3c1=O)C(=O)c1cc(Br)ccc1-2" ; yields the recorded call
-1

###

Tested on: SF-268 CNS
Assay Explanation: NCI tumour cell line growth inhibition, 48 h
Reported Property: GI50

The examples below pair each entry with its known result.
Cn1cc(C2=C(c3c[nH]c4ccccc34)C(=O)NC2=O)c2ccccc21
1.1 µM
CCCCCCCCCCCCC(O)c1ccco1 (stereo not given)
19.1 µM

Give me GI50 for each of these molecules, listed below.
1. [N-]=[N+]=NCCCn1c2c(c3ccc([N+](=O)[O-])cc3c1=O)C(=O)c1cc(Br)ccc1-2
2. Cc1cc(C)c(C#N)c(Sc2nc(C)c([N+](=O)[O-])c(C)c2C#N)n1
3. COc1ccc(-c2nc(-c3nc4ccc(C)cc4[nH]3)cc3c2[nH]c2ccccc23)cc1

1: > 100 µM; 2: 3.26 µM; 3: 6.8 µM

###

Give measured TGI for each item. Keep answers brief.
System: 786-0 renal
Assay Explanation: NCI tumour cell line growth inhibition, 48 h
Numbers only, in µM.

The examples below pair each entry with its known result.
O=C(N=Nc1ccccc1Cl)NNc1ccccc1Cl
34.4
O=[N+]([O-])/C(C(Cl)=C(Cl)Cl)=C(/Nc1cccc2cccnc12)n1nnc2ccccc21
43.8
CCOC(=O)c1cc(Br)c(-c2onc(C)c2Br)[nH]1
59.3

Give me TGI for each of these compounds, listed below.
1. CN(C)CC1CCC(CN(C)C)C(=O)C1=O (configuration not stated)
2. CC(C)(C)OC(=O)c1ccc(NCC2=C(Br)C(=O)C=CC2=O)cc1
3. COc1cccc2cc(N(C)c3nc(C)nc4c3CCC4)ccc12
4. CN(C)CCCn1c(=O)c2ccccc2c2cnc3[nH]ccc3c21
5. Cc1c([C@H](C)[C@@H]2NC[C@@H](C)C[C@H]2O)ccc2c1C[C@H]1[C@H]2CC=C2C[C@@H](O)CC[C@@]21C
6. CCCCCCSSC(=S)N(CC)CC
7. CC(C)Oc1cccc(N2C(Nc3ccccc3)=Nc3ccncc3S2(=O)=O)c1
8. CS(=O)(=O)c1ccc(Nc2nc(N[C@H]3CCCC[C@H]3N)nc3cc[nH]c(=O)c23)cc1

29.7
37.5
14.4
10.9
37.9
39.4
52.5
20.6

Dear colleague, please send me the reported TGI for CCN(CC)CCCC(C)Nc1cc(-c2cccc(OC(F)(F)F)c2)nc2ccc(N3CCCC3)cc12 (configuration not stated) when you can.
26.1

###

Test system: RXF 393 renal
Assay Explanation: NCI tumour cell line growth inhibition, 48 h; in the data active = GI50 below about 0.43 µM; inactive = the rest
Just give me one of these, please: T (active), F (inactive)

Completed entries (count: 3):
COc1ccc(-c2ccc(/C=N/n3c(COc4ccccc4Cl)nn(CN4CCOCC4)c3=S)o2)c([N+](=O)[O-])c1
F
COC(=O)c1c(-c2cccs2)oc(-c2cccs2)c1C(=O)OC
F
CN(C)CCCn1c(=O)c2ccccc2c2cnc3[nH]ccc3c21
F

// param item: "CC(C)N(Cc1ccc(CN(C(=O)CCl)C(C)C)cc1)C(=O)CCl" ; yields the recorded call
F

// param item: "NC(=O)c1ccc(Oc2nccc(-c3c(-c4ccc(F)cc4)ncn3C3CCNCC3)n2)cc1" ; yields the recorded call
F

// param item: "Cc1ccc(N=C[N-]c2ccc(C)cc2)cc1.Cc1ccc(N=C[N-]c2ccc(C)cc2)cc1.O=C([O-])C(F)(F)F.O=C([O-])C(F)(F)F.[OH3+].[OH3+].[Rh+2].[Rh+2]" ; yields the recorded call
F

###

Give measured TGI for each item. Keep answers brief.
Test system: OVCAR-8 ovarian
Assay Explanation: NCI tumour cell line growth inhibition, 48 h

The examples below pair each entry with its known result.
CN(C)CC1CCC(CN(C)C)C(=O)C1=O (centres undefined)
9.08 µM
O=C(NCCCc1cn[nH]c1)c1ccc(-c2ccncc2)c(C#Cc2ccc(F)cc2)c1
> 100 µM

Give me TGI for each of these compounds, listed below.
1. C=C1C(O)C2CC(C)(CO)C(=O)C2=C(CC(C)C)C12CC2 (centres undefined)
2. CC(C)OC(=S)Nc1ccc(Cl)c(/C=N/OC(C)(C)C)c1
3. COC1=CC(=O)N(C)C(O)C1(C#N)OC1OC(CO)C(O)C(O)C1O (centres undefined)
4. CC(C)=CCC[C@@H](C)C1=C(O)C(Nc2ccccc2I)=C(C)C(=O)C1=O
5. COC(=O)Nc1nc2ccc(NC(=O)c3ccc(I)cc3)cc2[nH]1
6. COC(NC(=O)Nc1ccccc1C)(C(F)(F)F)C(F)(F)F

> 100 µM
17 µM
> 100 µM
> 32.2 µM
> 100 µM
> 100 µM

Give me TGI for each of these compounds, listed below.
1. O=C1C2C=CC(n3[nH]c(=O)n(Cc4ccccc4)c3=O)CC2C(=O)N1c1ccc(Br)cc1 (centres undefined)
2. CC1CCC2(OC1)OC1C(O)C3C4CCC5CC(OC6OC(CO)C(OC7OC(CO)C(O)C(OC8OCC(O)C(O)C8O)C7OC7OC(CO)C(O)C(OC8OC(CO)C(O)C(O)C8O)C7O)C(O)C6O)C(O)CC5(C)C4CCC3(C)C1C2C (centres undefined)
3. O=C1/C(=C/c2cccc3ccccc23)CCc2ccc([N+](=O)[O-])cc21
4. CCOC(=O)C1=C(O)c2ccc(C)cc2C(=O)C1=O
5. CCCCCC(=O)Nc1nc2nc[nH]c2c(=O)[nH]1
6. O=c1c2nc(-c3ccccc3)oc2n(-c2ccccc2)c(=O)n1-c1ccccc1

> 100 µM
4.21 µM
> 100 µM
> 100 µM
> 100 µM
44.6 µM

###

System: UACC-62 melanoma
Assay Explanation: NCI tumour cell line growth inhibition, 48 h
Reported Property: TGI

The examples below pair each entry with its known result.
Cc1c(C(=O)O)n(C)c(=O)n(C)c1=O
> 100 µM
NC1c2ccccc2Nc2ccccc21
15.5 µM

Give me TGI for each of these compounds, listed below.
1. C1CN(c2nnc(N3CCC3)nn2)C1
2. CCOc1cc2c(cc1O)C(O)C[C@@H]1[C@@H]2CC[C@]2(C)[C@@H](O)CC[C@@H]12 (stereo partly specified)
3. CC/C(Cc1ccccc1)=C(\c1ccc(OCCN2CCCC2)cc1)c1ccc(OC(=O)NCc2ccccc2)cc1

1. 38.5 µM
2. > 100 µM
3. 3.24 µM

Dear colleague, please send me the reported TGI for "O=c1c2ccccc2nc2ccc3c(Cl)[nH][nH]c3c12" when you can.
> 77.7 µM

###

System: SF-539 CNS
Assay Explanation: NCI tumour cell line growth inhibition, 48 h
Would you mind labelling by TGI? At or over 3 µM is Satisfied, under is Not satisfied.

Completed entries (count: 4):
CCCCCCSSC(=S)N(CC)CC
Satisfied
CC(CNC(N)=O)NC(N)=O (centres undefined)
Satisfied
Cc1c2ccncc2c(C)c2c1[nH]c1ccc(OCCN(C)C)cc12
Not satisfied
O=[N+]([O-])/C(C(Cl)=C(Cl)Cl)=C(/Nc1cccc2cccnc12)n1nnc2ccccc21
Satisfied

Does the reported TGI for N#CC(C(=O)CCCC(=O)Nc1ccc(Cl)cc1Cl)c1ccccc1 (centres undefined) fall at or above the 3 µM mark?
Satisfied

Does the reported TGI for NC(N)=NC1C(O)C(O)C(O)C(N=C(N)N)C1O (centres undefined) fall at or above the 3 µM mark?
Satisfied

Does the reported TGI for "CC1(C)CC[C@]2(C(=O)O)CC[C@]3(C)[C@H](C(=O)C=C4[C@@]5(C)C=C(C#N)C(=O)C(C)(C)[C@@H]5CC[C@]43C)[C@@H]2C1" fall at or above the 3 µM mark?
Satisfied

Does the reported TGI for CCCCCC(O)C(O)CCC[C@H](O)[C@H]1CC[C@H]([C@H]2CC[C@H]([C@H](O)CCCCCCCCCCCCC3=C[C@H](C)OC3=O)O2)O1 (some centres undefined) fall at or above the 3 µM mark?
Satisfied

Does the reported TGI for "CCCCC#Cc1c(I)n(C)c(=O)[nH]c1=O" fall at or above the 3 µM mark?
Satisfied

Does the reported TGI for "CC(C)N(Cc1ccc(CN(C(=O)CCl)C(C)C)cc1)C(=O)CCl" fall at or above the 3 µM mark?
Satisfied

Does the reported TGI for "COCCOc1cc(C)cc(/C=C(C)/C=C/C2=C(C)CCCC2(C)C)n1" fall at or above the 3 µM mark?
Satisfied

Does the reported TGI for CCOC(=O)C(Cc1ccc(N(CCCl)CCCl)cc1)NC(=O)C(Cc1ccccc1)NC=O (centres undefined) fall at or above the 3 µM mark?
Not satisfied

Does the reported TGI for "O=C(O)CCNS(=O)(=O)c1ccc2ccccc2c1" fall at or above the 3 µM mark?
Satisfied
